Overview of recorded furin cleavage Z-score for various sequences
targetOrTestSystem: furin, P09958;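 further: purified furin at 1:10 enzyme:substrate in 50 mM HEPES pH 7.5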
Sequence (P09958 whole entry): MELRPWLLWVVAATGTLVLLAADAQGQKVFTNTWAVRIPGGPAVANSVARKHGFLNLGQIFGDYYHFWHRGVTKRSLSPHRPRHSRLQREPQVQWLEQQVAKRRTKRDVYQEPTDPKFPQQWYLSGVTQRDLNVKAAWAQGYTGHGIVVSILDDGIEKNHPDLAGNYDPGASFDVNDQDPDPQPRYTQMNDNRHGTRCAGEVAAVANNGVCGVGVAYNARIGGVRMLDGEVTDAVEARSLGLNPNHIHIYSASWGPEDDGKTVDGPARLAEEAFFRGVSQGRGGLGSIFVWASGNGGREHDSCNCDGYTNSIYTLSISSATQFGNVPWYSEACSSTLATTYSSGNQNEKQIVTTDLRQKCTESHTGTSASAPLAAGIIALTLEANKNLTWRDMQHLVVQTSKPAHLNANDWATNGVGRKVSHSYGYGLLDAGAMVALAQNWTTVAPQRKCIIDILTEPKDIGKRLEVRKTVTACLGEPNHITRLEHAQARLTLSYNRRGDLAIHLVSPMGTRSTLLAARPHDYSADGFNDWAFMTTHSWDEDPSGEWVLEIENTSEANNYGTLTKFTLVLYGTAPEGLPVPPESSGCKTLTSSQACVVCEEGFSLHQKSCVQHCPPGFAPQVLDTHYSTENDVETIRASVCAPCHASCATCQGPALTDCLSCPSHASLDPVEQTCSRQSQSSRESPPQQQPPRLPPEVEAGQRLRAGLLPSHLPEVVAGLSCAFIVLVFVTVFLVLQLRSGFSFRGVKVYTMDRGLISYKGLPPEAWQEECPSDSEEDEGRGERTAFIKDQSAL
assayInfo: furin cleavage Z-score vs untreated control; higher = more cleavage, active = 3.5 or more, inactive = 1 or less, 8 variable residues between constant flanks
assaySetup: 15 min
The other results are listed elsewhere or left out. No count for the full screen is at hand.
Hey, just send me the number, nothing else.

In: // fetch furin cleavage Z-score given entry CAEVPCHRPYAGNASASA [HC2409]
Out: -0.249
